# System: human GPR119 (Homo sapiens)
# Construct: expressed in transfected cells; host or cells: HEK 293s
# Experimental Details: Cyclic AMP (HTRF cAMP) assay for human GPR119, Method A
# Assay type: cell-based
# Test Conditions: HEK293S, 0.75 h; Method A; HEK 293s cells over-expressing human GPR119; percent effect at top concentration 30 μM relative to maximum (50 μM Oleoylethanolamide) and minimum (1% DMSO) controls
Measurement Label: activation at 30 µM (%)
Give the number; % is assumed, so skip it.

Past entries and their recorded results:
I have this molecule here, CC1(OC(=O)N2CCN(c3ncc(OCc4ccc(S(C)(=O)=O)cc4)cn3)CC2)COC1 [Example 79] , and I need its recorded activation at 30 µM.
37

Can you share its activation at 30 µM? I mean this molecule: C[C@@H]1CN(c2noc(C(F)(F)F)n2)CCN1c1ncc(OCc2ccc(S(C)(=O)=O)cc2)cn1 [Example 90]
75

Would you mind telling me what activation at 30 µM value was observed for CC(=O)Nc1ccc(COc2cnc(N3CCN(C(=O)OC(C)(C)C)CC3)nc2)cn1 [Example 6] ?
59

For Cc1cc(COc2cnc(N3CCN(C(=O)OC(C)(C)C)CC3)nc2)ccc1NC(=O)C(C)C [Example 12] , what is its reported activation at 30 µM?
54

Fill blank: measured activation at 30 µM of the molecule CC(C)(C)OC(=O)N1CCN(c2ncc(OCc3ccc([S+]([O-])C(F)(F)F)cc3)cn2)CC1 (stereo not shown) [Example 91] is ____.
32

Further cases:
Which activation at 30 µM is reported for this molecule? CS(=O)(=O)c1ccc(COc2cnc(N3CCN(c4noc(C(F)(F)F)n4)CC3)nc2)cc1 [Example 88]
79

Endpoint output: activation at 30 µM of C[C@@H]1CN(C(=O)OC2(C(F)(F)F)COC2)CCN1c1ncc(OCc2ccncc2C#N)cn1 [Example 111] . Value?
171

Consider the molecule shown here: CC(C)(C)OC(=O)N1CCN(c2ncc(OCc3ccc(C(=O)N4CCNCC4)cc3)cn2)CC1 [Example 50] What is its recorded activation at 30 µM?
23

Reported activation at 30 µM for CC(C)C(=O)Nc1ncc(COc2cnc(N3CCN(C(=O)OC(C)(C)C)CC3)nc2)cn1 [Example 94] : what is it?
44

Report activation at 30 µM for N#Cc1cnccc1COc1cnc(N2CCN(C(=O)OC3COC3)CC2)nc1 [Example 77] please.
92

* * *

Listed compounds paired with reported activation at 30 µM
# System: human GPR119 (Homo sapiens)
# Construct: expressed in transfected cells; host or cells: HEK 293s
# Sequence (Q8TDV5 1-335): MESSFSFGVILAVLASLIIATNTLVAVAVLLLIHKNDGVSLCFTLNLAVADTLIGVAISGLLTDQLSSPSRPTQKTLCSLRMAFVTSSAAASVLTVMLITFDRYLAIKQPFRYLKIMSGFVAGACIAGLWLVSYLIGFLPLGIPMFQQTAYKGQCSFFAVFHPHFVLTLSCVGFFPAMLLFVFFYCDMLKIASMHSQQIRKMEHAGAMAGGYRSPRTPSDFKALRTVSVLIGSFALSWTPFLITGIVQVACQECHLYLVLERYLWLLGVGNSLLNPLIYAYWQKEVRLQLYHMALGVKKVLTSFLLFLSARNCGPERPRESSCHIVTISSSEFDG
# Experimental Details: Cyclic AMP (HTRF cAMP) assay for human GPR119, Method A
# Type: cell-based
# Test Conditions: HEK293S, 0.75 h; Method A; HEK 293s cells over-expressing human GPR119; percent effect at top concentration 30 μM relative to maximum (50 μM Oleoylethanolamide) and minimum (1% DMSO) controls
// note: answer is a bare numeric in %

Using the record for C[C@@H]1CN(C(=O)O[C@@H](C)C(F)(F)F)CCN1c1ncc(OCc2ccncc2C#N)cn1 , report its activation at 30 µM.
315

// query activation at 30 µM value for entry CC(C)c1nc(N2CCN(c3ncc(OCc4ccncc4C#N)cn3)CC2)no1
167

// returns reported activation at 30 µM for input Cc1nc(-c2ccc(COc3cnc(N4CCN(C(=O)OC(C)(C)C)CC4)nc3)cc2)no1
69

State the recorded activation at 30 µM for this entry: CN(CCO)C(=O)c1ccc(COc2cnc(N3CCN(C(=O)OC(C)(C)C)CC3)nc2)cc1
48

I have this compound here, CC(OC(=O)N1CCN(c2ncc(OCc3ccc(S(C)(=O)=O)cc3)cn2)[C@H](C)C1)C(F)(F)F (some centres unmarked) , and I need its recorded activation at 30 µM.
60

So what does the record say about activation at 30 µM for C[C@@H]1CN(C(=O)O[C@H](C)C(F)(F)F)CCN1c1ncc(OCc2ccncc2C#N)cn1 ?
244

Item under review: CC(C)(C#N)OC(=O)N1CCN(c2ncc(OCc3ccncc3C#N)cn2)CC1 . Reported activation at 30 µM?
173

Which activation at 30 µM is reported for this compound? CC(C)(C)OC(=O)N1CCN(c2ncc(OCc3ccc(S(C)(=O)=O)cc3)cn2)CC1
83

***
Recorded activation at 30 µM for CC(C)(C)NC(=O)c1ccc(COc2cnc(N3CCN(C(=O)OC(C)(C)C)CC3)nc2)cc1 , please?
109

Item under review: CC1(OC(=O)N2CCN(c3ncc(OCc4ccc(S(C)(=O)=O)cc4)cn3)CC2)CC1 . Reported activation at 30 µM?
90

Consider the compound shown here: CC(OC(=O)N1CCN(c2ncc(OCc3ccncc3C#N)cn2)CC1)C(F)(F)F (centres unmarked) What is its recorded activation at 30 µM?
169

Which activation at 30 µM reading was recorded for the compound CS(=O)(=O)c1ccc(COc2cnc(N3CCN(C(=O)OC4CCC4)CC3)nc2)cc1 ?
52

I am curious: what activation at 30 µM value has been reported for CC(C)(C)OC(=O)N1CCN(c2ncc(OCc3ccc(S(C)(=O)=O)cn3)cn2)CC1 ?
86

activation at 30 µM for CCS(=O)(=O)c1ccc(COc2cnc(N3CCN(C(=O)OC(C)(C)C)CC3)nc2)cc1 ?
66

Fill in: activation at 30 µM of CC(C)OC(=O)N1CCN(c2ncc(OCc3ccc(S(C)(=O)=O)cc3)cn2)CC1 is ___
63

* * *

# System: human GPR119 (Homo sapiens, UniProt Q8TDV5)
# Experimental Details: Cyclic AMP (HTRF cAMP) assay for human GPR119, Method A
# Test Conditions: Method A; HEK 293s cells over-expressing human GPR119; midpoint of dose response curve; selected examples
Measurement Label: pEC50
When answering, recall that pEC50 equals minus log10 of the concentration in mol/L, and write that number alone.

# example entries with known answers
Fill blank: measured pEC50 of the compound CN(C)CCN(C)C(=O)c1ccc(COc2cnc(N3CCN(C(=O)OC(C)(C)C)CC3)nc2)cc1 is ____.
5.69

Using the record for CC1(OC(=O)N2CCN(c3ncc(OCc4ccncc4C#N)cn3)CC2)CC1 , report its pEC50.
6.94

Could you tell me which pEC50 is on file for CC(C)(C)OC(=O)N1CCN(c2ncc(OCc3ccc(S(C)(=O)=O)cc3F)cn2)CC1 ?
7.72

What value of pEC50 has been reported for the following compound? C[C@@H]1CN(C(=O)OC2CCOCC2)CCN1c1ncc(OCc2ccncc2C#N)cn1
6.17

Give the measured pEC50 of C[C@@H]1CN(c2noc(C(F)(F)F)n2)CCN1c1ncc(OCc2ccc(S(C)(=O)=O)cc2)cn1 .
7.59

Which pEC50 value belongs to Cc1cc(COc2cnc(N3CCN(C(=O)OC(C)(C)C)CC3)nc2)ccc1S(C)(=O)=O ?
7.70

Data request, read-out pEC50, for CS(=O)(=O)c1ccc(COc2cnc(N3CCN(c4ncc(F)cn4)CC3)nc2)cc1
6.81

// returns reported pEC50 for input C[C@@H]1CN(C(=O)OC(C)(C)C)CCN1c1ncc(OCc2ccc(C(=O)N(C)CCO)cc2)cn1
6.69

May I ask what pEC50 has been recorded for CC(C)NC(=O)c1ccc(COc2cnc(N3CCN(C(=O)OC(C)(C)C)CC3)nc2)cc1 ?
7.49

Sample CCS(=O)(=O)c1ccc(COc2cnc(N3CCN(C(=O)OC(C)(C)C)CC3)nc2)cc1 — what was its pEC50?
6.91

Further cases:
Consider the compound shown here: CC(OC(=O)N1CCN(c2ncc(OCc3ccc(S(C)(=O)=O)cc3)cn2)[C@H](C)C1)C(F)(F)F (stereo partly drawn) What is its recorded pEC50?
7.41

Which value of pEC50 has been reported for CC(C)(C)OC(=O)N1CCN(c2ncc(OCc3ccc(OS(C)(=O)=O)cc3)cn2)CC1 in the records?
7.70

* * *

# activation at 30 µM values compiled below
# System: human GPR119 (Homo sapiens)
# Construct: expressed in transfected cells; host or cells: HEK 293s
# Experimental Details: Cyclic AMP (HTRF cAMP) assay for human GPR119, Method A
# Type: cell-based
# Test Conditions: HEK293S, 0.75 h; Method A; HEK 293s cells over-expressing human GPR119; percent effect at top concentration 30 μM relative to maximum (50 μM Oleoylethanolamide) and minimum (1% DMSO) controls
Please respond with the number in % and leave the unit unwritten.

Please review the entries below; each comes with its answer.
Would you kindly share the measured activation at 30 µM for CC(C)(C)OC(=O)N1CCN(c2ncc(OCc3ccc(S(C)(=O)=O)c(F)c3)cn2)CC1 ?
62

What does the data say about its activation at 30 µM? Entry: Cc1cc(COc2cnc(N3CCN(C(=O)OC(C)(C)C)CC3)nc2)ccc1C(=O)NC(C)(C)C
65

Proceed to the following item.
What activation at 30 µM value was documented for this compound, CC(C)(C)OC(=O)N1CCN(c2ncc(OCc3ccc(-n4cccn4)nc3)cn2)CC1 ?
82
